system_tested: T1, RADIL, Q96JH8
T1 sequence (Q96JH8 971-1071, limits assumed, looked up): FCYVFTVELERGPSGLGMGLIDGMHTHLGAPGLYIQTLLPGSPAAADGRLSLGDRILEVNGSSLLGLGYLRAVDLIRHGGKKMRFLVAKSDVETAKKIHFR
protocol_details: holdup assay
Parameters: key: below the threshold = too weak to quantify, mostly under pKd 3.1 to 4
run_conditions: plain residues with an end cap or a label only (N-terminal biotin on a linker: ado-ado)
// pKd lookup, one value per entry
recorded_metric: pKd

>>> df
                         binder  observed_measurement
0    EVNETDDTKM [KCNJ1, P48048]                  3.56
1  SNAGNTATKA [NOSTRIN, Q8IVI9]                  3.57
2   QHKTQLQTLI [BPIFA2, Q96DR5]                  3.91
